Measured TGI values are reported for all entries that follow.
System: A498 renal
ASSAY_PROCEDURE: NCI tumour cell line growth inhibition, 48 h

{"MOLECULE": "Clc1ccccc1-c1nc2ccccc2[nH]1", "TGI": "> 100 µM"}

Give TGI (A498 renal) of the following molecule: C[C@H](CC[C@@H](O)C(C)(C)O)[C@H]1CC[C@@]2(C)[C@@H]3CC=C4[C@@H](CC[C@H](OC5OC(CO)C(O)C(O)C5O)C4(C)C)[C@]3(C)C(=O)C[C@]12C (some centres undefined)
> 100 µM

Next: NNC(=O)CC(=O)Nc1ccccc1F
> 100 µM

Next: Cc1nc2ccccc2c(=O)n1NC(=O)Cc1ccccc1
> 100 µM

Next: CC(=O)OCC1OC(OCC2OC(N3C(=S)N[C@H]([C@@H](O)[C@H](O)[C@H](O)CO)[C@H]3O)C(OC(C)=O)C(OC(C)=O)C2OC(C)=O)C(OC(C)=O)C(OC(C)=O)C1OC(C)=O (some centres undefined)
> 100 µM

Next: CCCCCCC(CCl)c1sc(-c2csc(CCNC(=O)OC(C)(C)C)n2)nc1C(=O)OC (centres undefined)
> 100 µM

Next: COC(=O)c1[nH]nc(-c2ccccc2)c1N1CCCCC1
57.2 µM

Next: COc1cc(C/C=C/c2ccccc2)c(OC)cc1O
> 100 µM

Next: O=C1Nc2ccccc2C12CC(c1ccccc1)=NN2 (centres undefined)
9.24 µM

----------
Test system: T-47D breast
ASSAY_PROCEDURE: NCI tumour cell line growth inhibition, 48 h
Measured TGI values are reported for all entries that follow.

{"COMPOUND": "CC(C)OC(=O)c1ccc(CCC2=CC(=O)C(Br)=CC2=O)cc1", "PARAMETER": "TGI", "RESULT": "45 µM"}
{"COMPOUND": "O=C(Cc1ccccc1)Nc1nnc(CCSCCc2nnc(NC(=O)Cc3ccccc3)s2)s1", "PARAMETER": "TGI", "RESULT": "> 100 µM"}
{"COMPOUND": "c1ccc(-c2n(Cc3ccc4ccccc4n3)c3ccccc3[n+]2Cc2ccc3ccccc3n2)cc1", "PARAMETER": "TGI", "RESULT": "1.96 µM"}

Consider the compound shown here: CCOC(=O)/C=C(/C(=O)OCC)n1c(=O)c(C)cn(C2CC(N=[N+]=[N-])C(CO)O2)c1=O (stereo not drawn) What is its recorded TGI?
> 100 µM

Next: C[C@H](CC[C@@H](O)C(C)(C)O)[C@H]1CC[C@@]2(C)[C@@H]3CC=C4[C@@H](CC[C@H](OC5OC(CO)C(O)C(O)C5O)C4(C)C)[C@]3(C)C(=O)C[C@]12C (stereo partly drawn)
> 100 µM

Next: NCCCCNCCCN
> 100 µM

Next: O=C1Nc2ccccc2NC1C1OC(c2ccccc2)=CC1=O (stereo not drawn)
> 100 µM

Next: O=C([C@H](O)[C@@H](O)c1ccc(Br)cc1)C12CC3CC(CC(C3)C1)C2
> 29.3 µM

----------
System: SNB-75 CNS
ASSAY_PROCEDURE: NCI tumour cell line growth inhibition, 48 h; in the data active means GI50 below about 0.43 µM; inactive means the rest
Returns: one label drawn from active, inactive

Solved entries:
{"COMPOUND": "NC1=CC(=O)C(=O)c2cccnc21", "ASSIGNED_CLASS": "inactive"}
{"COMPOUND": "CC(=O)OC1CCC2(C)C(CCC3C2CCC2(C)C(C4=CC(=O)OC4)CCC32)C1 (stereo unspecified)", "ASSIGNED_CLASS": "inactive"}
{"COMPOUND": "Oc1c(I)cc(I)cc1CNCCCN(Cc1ccccn1)Cc1ccccn1", "ASSIGNED_CLASS": "inactive"}
{"COMPOUND": "c1ccc(Cn2cc3c(c2)-c2oncc2CC3)cc1", "ASSIGNED_CLASS": "inactive"}
{"COMPOUND": "CC(=O)NNC(=O)c1nn(-c2ccc(Cl)cc2)cc1OC(C)=O", "ASSIGNED_CLASS": "inactive"}
{"COMPOUND": "Cc1cc(C)cc(Nc2nccc(-c3c(-c4ccc(F)cc4)ncn3C3CCNCC3)n2)c1", "ASSIGNED_CLASS": "inactive"}

Outcome? COC(=O)c1[nH]nc(-c2ccccc2)c1N1CCCCC1
inactive

Next: O=C1Nc2ccccc2C12CC(c1ccccc1)=NN2 (stereo unspecified)
inactive

Next: COc1cc(Nc2ncc3c(n2)-c2ccc(Cl)cc2C(c2c(F)cccc2OC)=NC3)ccc1C(=O)O
inactive

Next: COc1ccc(C(=O)Nc2ncc(Cc3ccc(F)cc3)s2)cc1
active

Next: O=C(Cc1ccc(/C=C/C(=O)c2ncc[nH]2)cc1)Nc1ccc(Br)cc1
inactive

Next: O=C1C2C(C(=O)[N]1[Hg][c]1ccccc1)C1(Cl)C(Cl)=C(Cl)C2(Cl)C1(Cl)Cl (stereo unspecified)
inactive

Next: O=C(Cc1ccccc1)Nc1nnc(CCSCCc2nnc(NC(=O)Cc3ccccc3)s2)s1
inactive

Numbers sourced from PubChem BioAssay (NCI).
